test: soluble on expression in E. coli; label from the status in PepcDB or PDB records
readout_label: soluble on expression in E. coli

# macromolecule_sequence, recorded_value
data = [
    ("HDLALSGNAYKVRLFLSLIGREATLRPVDFLNREHKTQAFLRMNPRGQIPVLEDGELQLGDSHAILVYLARRHADPVWYPLDPVSQGRIAYWLSYSANEVQNGPASARLITRFNLPLDREQTHQRGLEVLRLVDRHLAEHRWLAQGEQPSIADVALYPYLALAPEGGLALDHYPALNAWIARIRALPGYIPMPGL", "not soluble"),
    ("MIQAVLFDLDGTLADTALDLGGALNTLLARHGLPAKSMDEIRTQASHGAAGLIKLGAGITPDHPDYARWRTEYLDEYDSRYAQDTTLF", "not soluble"),
]

###

assay: soluble on expression in E. coli; label from the status in PepcDB or PDB records
readout_label: soluble on expression in E. coli

# macromolecule_sequence, readout_label, recorded_value
rows = [
    ("MGSDKIHHHHHHMNDQKNAAQVGLGLRREMLSEFCESVPEAINFFEVAPENWMTLGGKFGRQFRELTEQHTFYCHGLSLSIGSPEPLDLAFVKNIKTFMDLHQIQIYSEHLSYCSGQGHLYDLMPIPFTDAAVKHVAARVKQVEDILERPLILENVSFYAAPGARMSELEFVNAVLQEADCKLLLDVNNIYVNSINHQYDADTFLQAMPTERIAYLHIAGHYKQAEDLLIDTHGAAINDPVWALLQRCYALHGVKPTLLERDFNVPTTAELLLELNQIHAYQAAAPSSHIQNSAHVVKRIA", "soluble on expression in E. coli", "not soluble"),
    ("MKENPSFLKEQIITYLGNKRALLSFLNNGFKVAKKELGKDKFSFCDIFSGSGVVSRFAKAHSNYILANDLEDYSKLINECYLANKDKDLLQNIKKYYKNLIQNLDFQKGFISELYAPKDDDDIKKNERVFYTFKNALYLDTIRQKIENEIPKELRHFFIAPLIYEASVHSNTSGVFKGFYKGKDGIGKFGGEGQNALKRIKGEIELKMPIFSNFSCEFEVMQKDANMLAKELDFFDVVYLDPPYNQHPYSSNYFMLNLIANYKKPEEISKISGIPKDWNRSTFNKSKFAQDALFELINDLKARVILLSYNCEGFVKKEIFLKRLSTLGKCRILEQKYNTFRASRNLKNRNIHLHEQLYILVKN", "soluble on expression in E. coli", "not soluble"),
]

###

assay: soluble on expression in E. coli; label from the status in PepcDB or PDB records

# macromolecule_sequence, soluble on expression in E. coli
rows = [
    ("MLAPKAFLDALSGHASRLFNGETPVPRSEFETQFKALLQSGFSKLDLVSREEFDSQMAVLARTRARLEALEAKMAELEGKVGGAEKAGSE", "not soluble"),
    ("MGSDKIHHHHHHMNIAEIEVTHKVKEKEWKEFLSRSEYATVYHTPEWKKTLEESFGYKPYYLFVKDESDLIVGMLPLFYVKSKLTGNRLSSLPFSHISGPVGDKATKNFLISEAINLYKNLGASYLEIRDRVEDNRFLSKNMFSTYILELNPNIEEVWKQLHKGSVRRAIKKSEKSGVVVDTAKDIESLKEFYDLNCVGKRKIGVPCHPWKFFKNLFRFMNDYISLYVAKYQNNIIGGGIMIYYKDTVIYGYGAAHPHYLKLYPYNAFLWKSIKDACLSRYKYFDLGRAHYNVERGLMDFKRRWGTIEKKLYYSYYSKNKDLKILDMSGLKYRLGTKVIRKMPMPIYKKFSDRIFGSLG", "not soluble"),
    ("NELDVPEQVDKLIQQATSIERLCQHYIGWCPFW", "soluble"),
    ("MGSDKIHHHHHHMIKLKKVLVLGGTRFFGKHLVEALLQDGHDVTIATRGITEDSFGSRVKRLIVDREDEKQLAERLADKSYDIVYDNLCYSSNAAKIICEVLRGKTTKYVMTSSMAVYEPALSLSEEDFDPYEYAIAYGDRNDFNYGEGKRLAEAVVFQQATFPVVAVRFPVVIGENDYTKRLQFYVEHIVREEPVAVNHLDGKLSFIHEEEAGEFLAWCGMKDIEGPINACSNGVVSTREIIHFIEENTGIKSLIQEVGDHVAPYNEVTNCTLHNGKANELGFPFRGLKIEIEKVLCYYIHAMK", "not soluble"),
    ("MSFVVANTEFVSGAAGNLARLGSMISAANSAAAAQTTAVAAAGADEVSAAVAALFGAHGQTYQVLSAQAAAFHSQFVQALSGGAQAYAAAEATNFGPLQPLFDVINAPTLALLNRPLIGNGADGTAANPNGQAGGLLIGNGGNGFSPAAGPGGNGGAAGLLGHGGNGGVGALGANGGAGGTGGWLFGNGGAGGNSGGGGGAGGIGGSAVLFGAGGAGGISPNGMGAGGSGGNGGLFFGNGGAGASSFLGGGGAGGRAFLFGDGGAGGAALSAGSAGRGGDAGFFYGNGGAGGSGAGGASSAHGGAGGQAGLFGNGGEGGDGGALGGNGGNGGNAQLIGNGGDGGDGGGAGAPGLGGRGGLLLGLPGANGT", "not soluble"),
    ("MGSDKIHHHHHHMKNLPSLKNLYYLVHLHQEQNFNRAAKMCFVSQSTLSSGIQNLEEQLGYQLIERDHKSFMFTAIGEEVVERARNILTNVDDLVELVKNQGEPMTGEIRLGCIPTIAPFLLSRVVKLCQQDYPKLSLLLKEDTTERLLDALAKGELDLLILALPVDTSGFHSMKVGIDPFKMVMHKEVSQQFLQPIDYQKMPDESIFLLQAEHCITGHAITACQLGDSAKINPFAATSLHTLVQMVNSKLGTTFLPQMAIDTGILTDTDLVAMDPPGEAPYRDIGLVWRQTTSRISTFRTLGLAIQQKLLAQSLPS", "not soluble"),
    ("MGSDKIHHHHHHMRSLSEFIENSQDKREIQRALAVKMLLEGYTHVAIQSILDVSSGFISKWKKAFFTFGVEGLKLRYKGSQGFLNPQQRYCVIEWLKTKEKWNLSELEYEIASSYGVVFESKQSYYDLFDAAGISWKKTQAHNPKYDEELVASKKKEICELLETRRSEIESGKLVVFMVDECHLLWGDICGYVWGKTSERISVPVVNARDKQTYFGAIDYKTHEFITYAAKKGDSQNMINFLEYLQSQRPGANLLIIWDGASYHRSNAIQDYLDSLNRQLEQEQWLITCKRFAPNAPQQNPVEDIWLQAKKLIREFYFFCHSFSVVKALFELAVNGQIFDFPKLNEYGNFSQMI", "not soluble"),
    ("MTSSSTPRHRGIFPVVPTTFADTGDLDLASQKRAVDFMIDAGSDGLCILANFSEQFAITDDERDVLTRTILEHVAGRVPVIVTTSHYSTQVCAARSLRAQQLGAAMVMAMPPYHGATFRVPEAQIFEFYARVSDAIAIPIMVQDAPASGTALSAPFLARMAREIEQVAYFKIETPGAANKLRELIRLGGDAIEGPWDGEEAITLLADLHAGATGAMTGGGFPDGIRPILEAWREGRHDDAYARYQAWLPLINHENRQSGILTAKALMREGGVIASERPRHPMPELHPDTRAELLAIARRLDPLVLRWAH", "soluble"),
    ("MGSDKIHHHHHHMSTYKINNEQLTLIKEMPFKLEKEIQNIVERNLQTLLGLDFIKTEFSIGSFRIDSLAFDSEKKSFVIIEYKRDKNFSVIDQGYAYLSLMLNNKAEFILEYNESKSGALKRNDVDWSQSKVLFVSPNFTTYQKEAINFKDLPIELWEIKRFTNDTLSFGQIVNRSSKESIKTVSNSEAITTVSKEIKVYSEQDHLENIKDDFLNIYTEIKEFLLSFGEDITIYPKKKTIGFKIGGKVFCDIVMQNKGIRLFLNAKKGTLKDPEGITRDVSEVGHWGNGAYEVRFPLKNDAEIDFVFNLLRQTINKNKE", "not soluble"),
    ("MGSDKIHHHHHHMTARNILSYSYEEYVEKITAFHGYPAPGVLIGGFMVDLAVKNLPEGILYDAICETRTCLPDAVQLLTPCTFGNGWLTVLPMGLFAVSLYDKFTGEGVRVFLDVEKMGPWQEIRNWFLKLKTKKEQDSERLFKEIREAGPDILELRNVKLKPGFLEKKHKGKIVLCPQCREAYPAQDGELCLSCQGGSPYL", "not soluble"),
    ("MYKDLEGKVVVITGSSTGLGKSMAIRFATEKAKVVVNYRSKEDEANSVLEEIKKVGGEAIAVKGDVTVESDVINLVQSAIKEFGKLDVMINNAGLENPVSSHEMSLSDWNKVIDTNLTGAFLGSREAIKYFVENDIKGTVINMSSVHEKIPWPLFVHYAASKGGMKLMTETLALEYAPKGIRVNNIGPGAINTPINAEKFADPEQRADVESMIPMGYIGEPEEIAAVAAWLASSEASYVTGITLFADGGMTLYPSFQAGRG", "soluble"),
]

Where these numbers come from: the DeepSol protein solubility set
